- target: LRRK2 (endogenous, HiBit tagged) (Homo sapiens)
- Construct: endogenous in cells; host or cells: HEK293 cells with HiBit knock-in at the endogenous LRRK2 locus, stably expressing firefly luciferase
- experiment-summary: Endogenous LRRK2 degradation assay, endogenous gene C-terminally HiBit-tagged in HEK293 cells (Nano-Glo Dual Luciferase)
- Format: cell-based
- experimental-setup: endogenous HiBit-tagged LRRK2 in HEK293 cells, 24 hours treatment; read-out: **Endogenous WT Dmax (%)
observable: Dmax

Query :: Using known records, supply Dmax for COc1c(N2CCC(C(C)(C)N3CCN(CC4CCN(c5cc(-c6n[nH]c7ccc(OC8(C)CC8)cc67)ncn5)CC4)CC3)CC2)ccc2c1CN(C1CCC(=O)NC1=O)C2=O (centres unmarked) [Compound 318]
Result :: ≥ 70%

Query :: Please indicate Dmax recorded for COc1c(N2CCC(CN3CCN(CC4CCN(c5cc(-c6n[nH]c7cc(F)c(OC8(C)CC8)cc67)ncn5)CC4)C(C)(C)C3)CC2)ccc2c1CN(C1CCC(=O)NC1=O)C2=O (centres unmarked) [Compound 278]
Result :: 50 to 70%

Query :: Find the measured Dmax of COc1c(N2CC3(CCN(CCC4CCN(c5cc(-c6n[nH]c7ccc(OC8(C)CC8)cc67)ncn5)CC4)CC3(F)F)C2)ccc2c1CN(C1CCC(=O)NC1=O)C2=O (centres unmarked) [Compound 341] and report it.
Result :: 50 to 70%

Query :: Quote Dmax reported for COc1c(N2CC[C@@H](CN3CCN(CC4CCN(c5cc(-c6n[nH]c7ccc(OC8(C)CC8)cc67)ncn5)CC4)CC3)C2)ccc2c1CN(C1CCC(=O)NC1=O)C2=O (some centres unmarked) [Compound 328] please.
Result :: 50 to 70%

Query :: Look up and report measured Dmax for this entry: C[C@H]1CN(c2ccc3c(c2F)CN(C2CCC(=O)NC2=O)C3=O)CCN1C[C@H]1CC[C@H](OC2CCN(c3cc(-c4n[nH]c5ccc(OC6(C)CC6)cc45)ncn3)CC2)CC1 (some centres unmarked) [Compound 346]
Result :: 50 to 70%

###

Field: DC50. Provide a value for each of the compounds that follow.
- target: G2019S LRRK2 (Homo sapiens, UniProt Q5S007, G2019S)
- Construct: expressed in transfected cells; host or cells: HEK293 (ATCC CRL-1573), transient transfection, mammalian expression vector with ubiquitin promoter
- Sequence (Q5S007 whole entry G2019S): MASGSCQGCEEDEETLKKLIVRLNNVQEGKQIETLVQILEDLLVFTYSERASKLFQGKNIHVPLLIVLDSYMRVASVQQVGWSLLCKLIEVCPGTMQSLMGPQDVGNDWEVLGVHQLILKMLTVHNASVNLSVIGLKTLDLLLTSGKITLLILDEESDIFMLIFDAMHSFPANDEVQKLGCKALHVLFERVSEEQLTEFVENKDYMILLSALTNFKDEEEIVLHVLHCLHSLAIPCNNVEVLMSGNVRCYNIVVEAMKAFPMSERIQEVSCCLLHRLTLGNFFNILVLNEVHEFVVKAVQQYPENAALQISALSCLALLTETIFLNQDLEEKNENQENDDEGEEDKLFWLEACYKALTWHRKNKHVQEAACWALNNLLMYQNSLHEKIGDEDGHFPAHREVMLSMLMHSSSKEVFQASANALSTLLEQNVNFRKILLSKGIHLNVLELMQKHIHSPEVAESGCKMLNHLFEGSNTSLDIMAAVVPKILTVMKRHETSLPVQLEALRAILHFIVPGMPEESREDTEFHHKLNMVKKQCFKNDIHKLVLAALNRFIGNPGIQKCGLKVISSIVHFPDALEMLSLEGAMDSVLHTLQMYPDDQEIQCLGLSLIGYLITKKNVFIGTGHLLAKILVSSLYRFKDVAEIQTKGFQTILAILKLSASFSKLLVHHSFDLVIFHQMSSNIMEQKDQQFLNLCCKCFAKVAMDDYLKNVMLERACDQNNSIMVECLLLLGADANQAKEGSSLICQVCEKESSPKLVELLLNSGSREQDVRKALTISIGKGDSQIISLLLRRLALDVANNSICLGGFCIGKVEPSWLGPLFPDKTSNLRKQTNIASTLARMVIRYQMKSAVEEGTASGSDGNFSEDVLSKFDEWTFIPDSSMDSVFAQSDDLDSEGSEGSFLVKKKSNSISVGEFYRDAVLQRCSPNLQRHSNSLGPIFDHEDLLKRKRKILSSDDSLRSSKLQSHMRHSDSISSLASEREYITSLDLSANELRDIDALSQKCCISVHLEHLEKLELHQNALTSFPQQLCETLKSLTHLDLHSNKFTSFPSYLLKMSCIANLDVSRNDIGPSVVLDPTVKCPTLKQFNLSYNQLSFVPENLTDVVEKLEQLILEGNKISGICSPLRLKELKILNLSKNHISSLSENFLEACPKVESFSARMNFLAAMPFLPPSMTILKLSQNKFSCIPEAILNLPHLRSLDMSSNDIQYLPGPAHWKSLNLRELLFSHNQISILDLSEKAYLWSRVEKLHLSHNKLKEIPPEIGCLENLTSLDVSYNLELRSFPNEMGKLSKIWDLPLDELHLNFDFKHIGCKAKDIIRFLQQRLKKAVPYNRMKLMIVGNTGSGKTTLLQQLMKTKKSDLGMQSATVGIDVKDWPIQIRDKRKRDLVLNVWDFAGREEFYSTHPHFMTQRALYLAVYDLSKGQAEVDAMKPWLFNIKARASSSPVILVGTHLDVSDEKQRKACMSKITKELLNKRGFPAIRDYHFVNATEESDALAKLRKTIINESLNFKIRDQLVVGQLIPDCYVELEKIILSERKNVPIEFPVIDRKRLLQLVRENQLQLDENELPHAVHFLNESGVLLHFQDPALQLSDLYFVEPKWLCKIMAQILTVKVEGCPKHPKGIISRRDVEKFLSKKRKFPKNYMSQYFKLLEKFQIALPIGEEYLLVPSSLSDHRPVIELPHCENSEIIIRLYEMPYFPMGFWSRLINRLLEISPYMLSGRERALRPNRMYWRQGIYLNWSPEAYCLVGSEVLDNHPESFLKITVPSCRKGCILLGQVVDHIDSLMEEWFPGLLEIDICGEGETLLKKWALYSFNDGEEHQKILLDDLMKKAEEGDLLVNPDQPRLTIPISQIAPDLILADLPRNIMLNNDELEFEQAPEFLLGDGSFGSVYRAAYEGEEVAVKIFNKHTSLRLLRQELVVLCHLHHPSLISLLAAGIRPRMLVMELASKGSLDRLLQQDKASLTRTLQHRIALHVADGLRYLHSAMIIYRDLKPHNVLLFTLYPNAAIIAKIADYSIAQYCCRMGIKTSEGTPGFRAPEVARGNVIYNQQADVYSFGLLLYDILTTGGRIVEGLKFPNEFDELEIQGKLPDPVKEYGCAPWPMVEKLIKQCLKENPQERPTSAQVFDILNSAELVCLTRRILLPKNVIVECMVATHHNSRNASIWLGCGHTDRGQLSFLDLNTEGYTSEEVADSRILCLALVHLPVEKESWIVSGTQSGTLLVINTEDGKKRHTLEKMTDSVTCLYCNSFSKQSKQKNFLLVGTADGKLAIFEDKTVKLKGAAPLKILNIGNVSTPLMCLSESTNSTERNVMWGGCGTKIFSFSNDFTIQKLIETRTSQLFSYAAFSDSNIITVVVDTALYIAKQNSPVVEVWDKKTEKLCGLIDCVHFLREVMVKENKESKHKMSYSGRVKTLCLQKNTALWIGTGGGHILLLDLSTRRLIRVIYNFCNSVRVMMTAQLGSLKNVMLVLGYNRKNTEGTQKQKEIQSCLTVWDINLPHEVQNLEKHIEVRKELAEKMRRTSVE
- experiment-summary: LRRK2 degradation assay, HiBit-tagged G2019S LRRK2 expressed from plasmid in HEK293 cells (Nano-Glo Dual-Luciferase)
- Type: cell-based
- experimental-setup: HiBit-tagged G2019S LRRK2, HEK293 cells, 24 hours

Query :: Fill in DC50 for CC1(Oc2ccc3[nH]nc(-c4ccnc(N5CC(CCC6CCN(CC7CCN(c8ccc9c(c8)C(=O)N(C8CCC(=O)NC8=O)C9=O)CC7)CC6)C5)c4)c3c2)CC1 (stereo not shown) tested with G2019S LRRK2 (Homo sapiens, UniProt Q5S007, G2019S).
Result :: < 10 nM

Query :: Tell me DC50 of CC1(Oc2ccc3[nH]nc(-c4cc(N5CCO[C@@H](CCN6CCN(CC7CCN(c8ccc9c(c8)C(=O)N(C8CCC(=O)NC8=O)C9=O)CC7)CC6)C5)ncn4)c3c2)CC1 (single isomer, unassigned) when tested on G2019S LRRK2 (Homo sapiens, UniProt Q5S007, G2019S).
Result :: < 10 nM

Query :: Please report DC50 with G2019S LRRK2 (Homo sapiens, UniProt Q5S007, G2019S) for item CC1(Oc2ccc3[nH]nc(-c4cc(N5CCC(CN6CC7(CN(CC8CCN(c9ccc%10c(c9)C(=O)N(C9CCC(=O)NC9=O)C%10=O)CC8)C7)C6)CC5)ncn4)c3c2)CC1 (stereo not shown) .
Result :: < 10 nM

Query :: Please report DC50 with G2019S LRRK2 (Homo sapiens, UniProt Q5S007, G2019S) for item CC1(Oc2ccc3n[nH]c(-c4cc(N5CCC(Cc6ccc(CC7CCN(c8ccc9c(c8)C(=O)N(C8CCC(=O)NC8=O)C9=O)CC7)cc6)CC5)ncn4)c3c2)CC1 (stereo not shown) .
Result :: ≥ 100 nM

Query :: Please report the measured DC50 for CC1(Oc2ccc3[nH]nc(-c4ccnc(N5CC6(CCN6CC6CCN(CC7CCN(c8ccc9c(c8)C(=O)N(C8CCC(=O)NC8=O)C9=O)CC7)CC6)C5)c4)c3c2)CC1 (stereo not shown) tested on G2019S LRRK2 (Homo sapiens, UniProt Q5S007, G2019S).
Result :: 10 to 50 nM

Query :: // fetch DC50; item: CC1(Oc2ccc3[nH]nc(-c4cc(N5CCN(C[C@@H]6CN(CC7CCN(c8ccc9c(c8)C(=O)N(C8CCC(=O)NC8=O)C9=O)CC7)CCO6)CC5)ncn4)c3c2)CC1 (stereo partly shown) ; system: G2019S LRRK2 (Homo sapiens, UniProt Q5S007, G2019S)
Result :: < 10 nM

Query :: Report DC50 under test system G2019S LRRK2 (Homo sapiens, UniProt Q5S007, G2019S) for CC1(Oc2ccc3[nH]nc(-c4cc(N5CCN(C[C@@H]6CN(CCC7CCN(c8ccc9c(c8)C(=O)N(C8CCC(=O)NC8=O)C9=O)CC7)CCO6)CC5)ncn4)c3c2)CC1 (stereo partly shown) .
Result :: < 10 nM

Query :: State DC50 (G2019S LRRK2 (Homo sapiens, UniProt Q5S007, G2019S)) of CC1(Oc2ccc3[nH]nc(-c4cc(N5CCC(CN6CC7(CCN7CC7CCN(c8ccc9c(c8)C(=O)N(C8CCC(=O)NC8=O)C9=O)CC7)C6)CC5)ncn4)c3c2)CC1 (stereo not shown) .
Result :: < 10 nM

Query :: Please tell me the measured DC50 for CC1(Oc2ccc3n[nH]c(-c4cc(N5CCC(Cc6cccc(CC7CCN(c8ccc9c(c8)C(=O)N(C8CCC(=O)NC8=O)C9=O)CC7)c6)CC5)ncn4)c3c2)CC1 (stereo not shown) ; system: G2019S LRRK2 (Homo sapiens, UniProt Q5S007, G2019S).
Result :: ≥ 100 nM

Query :: Consider the compound CC1(Oc2ccc3[nH]nc(-c4cc(N5CCO[C@H](CN6CCN(CC7CCN(c8ccc9c(c8)C(=O)N(C8CCC(=O)NC8=O)C9=O)CC7)CC6)C5)ncn4)c3c2)CC1 (stereo partly shown) tested on G2019S LRRK2 (Homo sapiens, UniProt Q5S007, G2019S); state its DC50.
Result :: < 10 nM

Query :: Report measured DC50 on G2019S LRRK2 (Homo sapiens, UniProt Q5S007, G2019S); entry: CC1(Oc2ccc3[nH]nc(-c4cc(N5CC[C@@H](CN6CCN(CC7CCN(c8ccc9c(c8)C(=O)N(C8CCC(=O)NC8=O)C9=O)CC7)CC6)C5)ncn4)c3c2)CC1 (stereo partly shown)
Result :: < 10 nM

Query :: Would you please give the reported DC50 of CC1(Oc2ccc3[nH]nc(-c4cc(N5CCN(Cc6cccc(CN7CCN(c8ccc9c(c8)C(=O)N(C8CCC(=O)NC8=O)C9=O)CC7)c6)CC5)ncn4)c3c2)CC1 (stereo not shown) with G2019S LRRK2 (Homo sapiens, UniProt Q5S007, G2019S)?
Result :: ≥ 100 nM

Query :: Provide DC50, tested on G2019S LRRK2 (Homo sapiens, UniProt Q5S007, G2019S), for CC1(Oc2ccc3[nH]nc(-c4cc(N5CCO[C@H](CCN6CCN(CC7CCN(c8ccc9c(c8)C(=O)N(C8CCC(=O)NC8=O)C9=O)CC7)CC6)C5)ncn4)c3c2)CC1 (stereo partly shown) .
Result :: < 10 nM

Query :: Identify measured DC50 obtained with G2019S LRRK2 (Homo sapiens, UniProt Q5S007, G2019S) for CC1(Oc2ccc3[nH]nc(-c4ccnc(N5CC(CC6CCN(CC7CCN(c8ccc9c(c8)C(=O)N(C8CCC(=O)NC8=O)C9=O)CC7)CC6)C5)c4)c3c2)CC1 (stereo not shown) .
Result :: < 10 nM

Query :: Fill: DC50 (G2019S LRRK2 (Homo sapiens, UniProt Q5S007, G2019S)) for this compound CC1(Oc2ccc3[nH]nc(-c4cc(N5CC[C@H](CN6CCN(CC7CCN(c8ccc9c(c8)C(=O)N(C8CCC(=O)NC8=O)C9=O)CC7)CC6)C5)ncn4)c3c2)CC1 (stereo partly shown)
Result :: < 10 nM

Query :: Give reported DC50 for CC1(Oc2ccc3[nH]nc(-c4cc(N5CC(CC6CCN(CC7CCN(c8ccc9c(c8)C(=O)N(C8CCC(=O)NC8=O)C9=O)CC7)CC6)C5)ncn4)c3c2)CC1 (stereo not shown) (G2019S LRRK2 (Homo sapiens, UniProt Q5S007, G2019S))
Result :: < 10 nM

###

- target: LRRK2 (endogenous, HiBit tagged) (Homo sapiens, UniProt Q5S007)
- Construct: endogenous in cells; host or cells: HEK293 cells with HiBit knock-in at the endogenous LRRK2 locus, stably expressing firefly luciferase
- Sequence (Q5S007 whole entry): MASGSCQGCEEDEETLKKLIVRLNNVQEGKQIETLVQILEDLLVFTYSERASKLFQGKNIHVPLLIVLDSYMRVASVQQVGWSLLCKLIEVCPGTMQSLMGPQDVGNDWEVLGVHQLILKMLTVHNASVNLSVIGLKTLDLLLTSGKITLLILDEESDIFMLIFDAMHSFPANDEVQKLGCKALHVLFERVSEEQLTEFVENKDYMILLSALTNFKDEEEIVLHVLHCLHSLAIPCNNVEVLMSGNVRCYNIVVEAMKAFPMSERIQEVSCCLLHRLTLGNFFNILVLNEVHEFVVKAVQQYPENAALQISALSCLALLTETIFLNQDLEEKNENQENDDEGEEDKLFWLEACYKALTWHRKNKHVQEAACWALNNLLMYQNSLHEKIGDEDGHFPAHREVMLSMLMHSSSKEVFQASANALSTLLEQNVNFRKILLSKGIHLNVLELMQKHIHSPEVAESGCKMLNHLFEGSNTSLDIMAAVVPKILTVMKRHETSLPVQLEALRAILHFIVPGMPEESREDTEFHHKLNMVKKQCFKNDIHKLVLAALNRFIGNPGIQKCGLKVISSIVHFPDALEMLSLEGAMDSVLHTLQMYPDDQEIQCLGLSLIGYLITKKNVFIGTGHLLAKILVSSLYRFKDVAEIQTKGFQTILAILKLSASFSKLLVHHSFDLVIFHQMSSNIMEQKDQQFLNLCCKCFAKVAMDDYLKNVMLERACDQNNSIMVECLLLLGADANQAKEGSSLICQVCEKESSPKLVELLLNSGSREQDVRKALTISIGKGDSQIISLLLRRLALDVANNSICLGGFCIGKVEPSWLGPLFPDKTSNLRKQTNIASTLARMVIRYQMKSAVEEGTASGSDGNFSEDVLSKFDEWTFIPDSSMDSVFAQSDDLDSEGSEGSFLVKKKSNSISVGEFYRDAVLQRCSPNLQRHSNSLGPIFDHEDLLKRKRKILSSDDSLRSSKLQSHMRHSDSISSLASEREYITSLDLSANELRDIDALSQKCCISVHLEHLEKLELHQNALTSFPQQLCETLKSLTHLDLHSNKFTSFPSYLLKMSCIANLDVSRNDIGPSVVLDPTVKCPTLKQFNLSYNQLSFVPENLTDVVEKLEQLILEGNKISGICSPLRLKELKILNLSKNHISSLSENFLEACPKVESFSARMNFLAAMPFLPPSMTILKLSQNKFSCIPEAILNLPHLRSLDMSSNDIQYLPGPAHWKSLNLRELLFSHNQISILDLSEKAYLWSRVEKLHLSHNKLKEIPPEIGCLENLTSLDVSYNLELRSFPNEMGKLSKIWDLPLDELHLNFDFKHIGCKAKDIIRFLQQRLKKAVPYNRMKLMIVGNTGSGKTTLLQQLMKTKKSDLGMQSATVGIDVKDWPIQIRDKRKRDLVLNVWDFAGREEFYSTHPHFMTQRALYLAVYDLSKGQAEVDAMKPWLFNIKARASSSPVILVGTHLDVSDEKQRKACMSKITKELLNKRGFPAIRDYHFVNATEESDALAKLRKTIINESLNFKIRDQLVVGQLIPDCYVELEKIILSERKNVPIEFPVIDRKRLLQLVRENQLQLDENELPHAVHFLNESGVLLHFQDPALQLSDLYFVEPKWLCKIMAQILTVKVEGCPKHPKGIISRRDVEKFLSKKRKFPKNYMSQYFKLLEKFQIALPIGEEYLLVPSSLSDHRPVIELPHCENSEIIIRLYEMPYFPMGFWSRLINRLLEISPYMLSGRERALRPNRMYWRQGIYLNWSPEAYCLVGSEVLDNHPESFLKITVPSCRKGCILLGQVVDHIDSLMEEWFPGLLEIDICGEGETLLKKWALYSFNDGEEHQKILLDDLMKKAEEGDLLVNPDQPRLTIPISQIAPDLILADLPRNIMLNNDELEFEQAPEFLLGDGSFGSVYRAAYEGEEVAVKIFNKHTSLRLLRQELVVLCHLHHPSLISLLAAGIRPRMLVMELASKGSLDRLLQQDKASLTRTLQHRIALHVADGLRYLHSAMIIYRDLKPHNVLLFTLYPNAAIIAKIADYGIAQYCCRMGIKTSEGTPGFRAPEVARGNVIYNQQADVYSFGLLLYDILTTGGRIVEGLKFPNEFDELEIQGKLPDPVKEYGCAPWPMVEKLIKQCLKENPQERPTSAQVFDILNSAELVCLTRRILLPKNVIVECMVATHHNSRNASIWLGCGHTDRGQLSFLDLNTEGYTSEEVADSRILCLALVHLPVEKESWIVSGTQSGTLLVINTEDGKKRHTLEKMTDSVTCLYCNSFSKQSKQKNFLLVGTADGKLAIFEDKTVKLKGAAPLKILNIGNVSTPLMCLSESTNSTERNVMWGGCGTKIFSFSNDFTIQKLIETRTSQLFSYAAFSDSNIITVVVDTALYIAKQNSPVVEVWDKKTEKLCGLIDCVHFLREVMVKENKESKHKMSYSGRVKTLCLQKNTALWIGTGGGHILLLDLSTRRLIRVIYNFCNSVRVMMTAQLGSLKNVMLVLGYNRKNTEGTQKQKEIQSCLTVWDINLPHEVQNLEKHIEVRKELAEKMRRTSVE
- experiment-summary: Endogenous LRRK2 degradation assay, endogenous gene C-terminally HiBit-tagged in HEK293 cells (Nano-Glo Dual Luciferase)
- Assay type: cell-based
- experimental-setup: endogenous HiBit-tagged LRRK2 in HEK293 cells, 24 hours; read-out: *Endogenous WT DC50
observable: DC50

Query :: Lab note: record DC50 of CC1(Oc2ccc3[nH]nc(-c4cc(C5CCN(CC6CCN(CC7CCN(c8ccc9c(c8)C(=O)N(C8CCC(=O)NC8=O)C9=O)CC7)CC6)CC5)ncn4)c3c2)CC1 (centres unmarked) [Compound 105] tested on LRRK2 (endogenous, HiBit tagged) (Homo sapiens, UniProt Q5S007).
Result :: ≥ 100 nM

Query :: Report measured DC50 on LRRK2 (endogenous, HiBit tagged) (Homo sapiens, UniProt Q5S007); entry: CC1(Oc2ccc3n[nH]c(-c4cc(N5CCN(CCN6CCN(CC7CCN(c8ccc9c(c8)CN(C8CCC(=O)NC8=O)C9=O)CC7)CC6)CC5)ncn4)c3c2)CC1 (centres unmarked) [Compound 66]
Result :: < 10 nM

Query :: Retrieve DC50 on LRRK2 (endogenous, HiBit tagged) (Homo sapiens, UniProt Q5S007); query CC1(Oc2ccc3n[nH]c(-c4cc(N5CCC(COC6CCN(C(=O)C7CCN(c8ccc9c(c8)C(=O)N(C8CCC(=O)NC8=O)C9=O)CC7)CC6)CC5)ncn4)c3c2)CC1 (centres unmarked) [Compound 62]
Result :: < 10 nM

Query :: Would you please give the reported DC50 of CC1(Oc2ccc3n[nH]c(-c4cc(N5CCC(CO[C@H]6CC[C@H](CN7CCN(c8ccc9c(c8)C(=O)N(C8CCC(=O)NC8=O)C9=O)CC7)CC6)CC5)ncn4)c3c2)CC1 (some centres unmarked) [Compound 60] with LRRK2 (endogenous, HiBit tagged) (Homo sapiens, UniProt Q5S007)?
Result :: < 10 nM

Query :: System LRRK2 (endogenous, HiBit tagged) (Homo sapiens, UniProt Q5S007). Read-out DC50. Item CC1(Oc2ccc3[nH]nc(-c4ccnc(N5CC(F)(CN6CCN(CC7CCN(c8ccc9c(c8)C(=O)N(C8CCC(=O)NC8=O)C9=O)CC7)CC6)C5)c4)c3c2)CC1 (centres unmarked) [Compound 132] . Report value.
Result :: < 10 nM
